Form field: ED50 (one value per entry).
Tested on: rats
Assay: Conditioned avoidance response procedure (response lever)
Type: in vivo
Conditions: ip; rat, i.p.; read-out: AB50 (dose producing 50% block in avoidance responding)
Structures can show the parent of a compound that is named as a salt.
recordedMetric: ED50 (mg/kg)

[
  {
    "molecule": "Cl.Cl.c1ccc2c3c([nH]c2c1)CN(CCCCc1ccncc1)CC3 [Example 4]",
    "recordedMetric": "ED50",
    "experimentalValue": 14.1
  },
  {
    "molecule": "c1ccc(CCN2CCc3c([nH]c4ccccc34)C2)nc1 [Example 9, Dihydrochloride]",
    "recordedMetric": "ED50",
    "experimentalValue": 22.6
  },
  {
    "molecule": "Cl.Cl.c1ccc2nc(CCCCN3CCc4c([nH]c5ccccc45)C3)ccc2c1 [Example 8]",
    "recordedMetric": "ED50",
    "experimentalValue": 31
  },
  {
    "molecule": "Cl.Cl.c1cncc(CCCN2CCc3c([nH]c4ccccc34)C2)c1 [Example 13]",
    "recordedMetric": "ED50",
    "experimentalValue": 20.9
  }
]

---

Target: limbic D-2 dopamine receptor (Rattus norvegicus, UniProt P61169)
Construct: Limbic brain tissue (nucleus accumbens, septal area, olfactory tubercle) is dissected and homogenized on ice
Sequence (P61169 whole entry): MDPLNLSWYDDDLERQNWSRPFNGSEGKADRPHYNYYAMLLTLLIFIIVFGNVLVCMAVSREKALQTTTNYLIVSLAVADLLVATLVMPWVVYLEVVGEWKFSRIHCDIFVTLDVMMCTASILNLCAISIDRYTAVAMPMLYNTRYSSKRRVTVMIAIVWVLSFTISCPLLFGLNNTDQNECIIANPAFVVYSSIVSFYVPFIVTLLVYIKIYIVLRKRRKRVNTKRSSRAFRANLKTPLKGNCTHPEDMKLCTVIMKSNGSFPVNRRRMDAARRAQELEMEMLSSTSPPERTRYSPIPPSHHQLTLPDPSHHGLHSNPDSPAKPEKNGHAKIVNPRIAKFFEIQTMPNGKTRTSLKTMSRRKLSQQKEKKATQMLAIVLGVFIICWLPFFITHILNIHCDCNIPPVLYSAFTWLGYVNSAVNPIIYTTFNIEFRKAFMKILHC
Experiment: Inhibition of limbic D-2 dopamine receptor binding (3H-spiroperidol, rat limbic brain homogenate)
Conditions: 0.3 nM 3H-spiroperidol, read-out: Ki (and 95% confidence interval)
pKi: −log10 of the molar value.
recordedMetric: pKi

[
  {
    "compound": "Cl.Cl.c1ccc2nc(CCN3CCc4c([nH]c5ccccc45)C3)ccc2c1 [Example 5, Dihydrochloride]",
    "experimentalValue": 6.78
  }
]
